Would you mind telling me the reported relative affinity of each entry?
target: T1, HLA-DR7 (HLA-DRB1*07:01) (human); assay: competition ELISA vs biotin-YKL
T1 construct: mature; purified from homozygous EBV-transformed lymphoblastoid cells with antibody L243
No end group written: not given here.
Number only, no unit.

The binder listed as KKMLQLVGVTAMFIA-NH2 [CCNB1 241-255] shows relative affinity equal to 0.1

The binder listed as PTLQHYLSYTEESLL-NH2 [CCNB1 363-377] shows relative affinity equal to 1

The binder listed as QHYLSYTEESLLPVM-NH2 [CCNB1 366-380] shows relative affinity equal to 1

The binder listed as LQLVGVTAMFIASKY-NH2 [CCNB1 244-258] shows relative affinity equal to 1

Where do these numbers come from? They come from patent US20180086804A1.
